# Tested on: diheteromeric NMDA receptors (GluN1 with GluN2A–D)
# Method: Two electrode voltage clamp, statements across the diheteromeric NMDA receptors
# Assay type: cell-based, rat
Readout Label: activity at NMDA receptor subtypes

INSERT INTO measurements (compound, target, measured_value) VALUES
  ('CCOC(=O)c1c(NC(=O)CC2SC(=O)NC2=O)sc2c1CCC2 (stereo not shown) [Compound 24]', 'diheteromeric NMDA receptors (GluN1 with GluN2A–D)', 'abolished activity'),
  ('CCOC(=O)c1c(NC(=O)CC2SC(=O)NC2=O)sc2c1CCCC2 (stereo not shown) [Compound 25]', 'diheteromeric NMDA receptors (GluN1 with GluN2A–D)', 'abolished activity');
